- System: NCI-H1993;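 note: growth inhibition of the cancer cell line, assessed with a cell viability assay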
- protocol: cells
- Format: functional, cell-based, Homo sapiens
- measurement_context: nci-h1993
- Description: SANGER: Inhibition of human NCI-H1993 cell growth in a cell viability assay.
pIC50: −log10 of the molar value.
readout_type: pIC50

Ask | Reported pIC50 for Cc1cc([C@@H](C)Nc2ccccc2C(=O)O)c2nc(N3CCOCC3)cc(=O)n2c1 : what is it?
Reply | < 5.29

###

pIC50 for assorted compounds
- Test system: CHP-134
- protocol: SANGER: Inhibition of human CHP-134 cell growth in a cell viability assay.
- Type: functional, cell-based
Please report pIC50 as the negative decimal logarithm of the molar concentration, giving only the number.

compound: COc1ccc(-c2ccc3c(N4CCOC[C@@H]4C)nc(N4CCOC[C@@H]4C)nc3n2)cc1CO [AZD-8055]
numeric_readout: 5.86

Kindly consider the entry below.
Ask | Reported pIC50 for COc1ccc(C2=N[C@@H](c3ccc(Cl)cc3)[C@@H](c3ccc(Cl)cc3)N2C(=O)N2CCNC(=O)C2)c(OC(C)C)c1 [NUTLIN-3] : what is it?
Reply | 5.53

###

- Test system: CTV-1;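 note: growth inhibition of the cell line, read out with a cell viability assay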
- protocol: cells
- Type: functional, cell-based
- measurement_context: Homo sapiens
- Description: SANGER: Inhibition of human CTV-1 cell growth in a cell viability assay.
pIC50: −log10 of the molar value.
pIC50 for assorted compounds

Here are 5 compounds together with their reported answers.
compound: COc1ccc(-c2ccc3c(N4CCOC[C@@H]4C)nc(N4CCOC[C@@H]4C)nc3n2)cc1CO
readout_type: pIC50
result: 7.06

compound: Cc1cnc(-c2cnc(NCCNc3ccc(C#N)cn3)nc2-c2ccc(Cl)cc2Cl)[nH]1
readout_type: pIC50
result: < 5.59

compound: O=C(NOCC1CC1)c1ccc(F)c(F)c1Nc1ccc(I)cc1Cl
readout_type: pIC50
result: < 5.00

compound: CC(=O)O[C@@H]1[C@@H](OC(C)=O)[C@@H](O)[C@H](Oc2c(-c3ccc(O)cc3)oc3cc(O)cc(O)c3c2=O)O[C@H]1C
readout_type: pIC50
result: < 5.00

compound: COc1cc(F)c(F)c(Nc2ccc(I)cc2F)c1NS(=O)(=O)C1(CC(O)CO)CC1 (stereo unspecified)
readout_type: pIC50
result: 5.30

Kindly consider the entry below.
Ask | Reported pIC50 for O=C(c1cc(Cc2n[nH]c(=O)c3ccccc23)ccc1F)N1CCN(C(=O)C2CC2)CC1 : what is it?
Reply | < 5.30

###

- Test system: OE19;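 note: growth inhibition of OE19 cells, measured through a cell viability read-out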
- protocol: cells
- Type: functional, cell-based, Homo sapiens
- measurement_context: Homo sapiens, OE19
- Description: SANGER: Inhibition of human OE19 cell growth in a cell viability assay.
readout_type: IC50

Here are 4 compounds together with their reported answers.
compound: C=CCc1cccc(/C=N/NC(=O)CN2CCN(Cc3ccccc3)CC2)c1O [PAC-1]
IC50: > 2.56 µM
//
compound: CN(Cc1cnc2nc(N)nc(N)c2n1)c1ccc(C(=O)N[C@@H](CCC(=O)O)C(=O)O)cc1 [METHOTREXATE]
IC50: > 0.2 µM
//
compound: C[C@]1(O)C[C@@H](c2nc(-c3ccc4ccc(-c5ccccc5)nc4c3)c3c(N)nccn32)C1 [LINSITINIB]
IC50: > 2.56 µM
//
compound: COc1cc([C@@H]2c3cc4c(cc3[C@@H](O[C@@H]3O[C@@H]5CO[C@@H](C)O[C@H]5[C@H](O)[C@H]3O)[C@H]3COC(=O)[C@H]23)OCO4)cc(OC)c1O [ETOPOSIDE]
IC50: > 16 µM

Ask | Reported IC50 for COc1ccc(C2=N[C@@H](c3ccc(Cl)cc3)[C@@H](c3ccc(Cl)cc3)N2C(=O)N2CCNC(=O)C2)c(OC(C)C)c1 [NUTLIN-3] : what is it?
Reply | > 8 µM

Ask | Let us now turn to CN(c1ncccc1CNc1nc(Nc2ccc3c(c2)CC(=O)N3)ncc1C(F)(F)F)S(C)(=O)=O [PF-00562271]
Reply | > 2.56 µM

Ask | Let us now turn to O=C(NOCC1CC1)c1ccc(F)c(F)c1Nc1ccc(I)cc1Cl [CI-1040]
Reply | > 10 µM

Ask | Let us now turn to COc1ccc(-c2ccc3c(N4CCOC[C@@H]4C)nc(N4CCOC[C@@H]4C)nc3n2)cc1CO [AZD-8055]
Reply | > 2 µM

###

- Test system: NCI-H2342
- protocol: cells
- Type: functional, cell-based
- measurement_context: Homo sapiens
- Description: SANGER: Inhibition of human NCI-H2342 cell growth in a cell viability assay.
readout_type: IC50

Here are 2 compounds together with their reported answers.
sample_smiles: O=c1cc(-c2cccc3c2Sc2ccccc2S3)oc(N2CCOCC2)c1
readout_type: IC50
result: > 10000 nM
//
sample_smiles: COc1ccc(-c2ccc3c(N4CCOC[C@@H]4C)nc(N4CCOC[C@@H]4C)nc3n2)cc1CO
readout_type: IC50
result: > 2000 nM

Ask | Reported IC50 for CC(=O)O[C@@]12CO[C@@H]1C[C@H](O)[C@@]1(C)C(=O)[C@H](O)C3=C(C)[C@@H](OC(=O)[C@H](O)[C@@H](NC(=O)OC(C)(C)C)c4ccccc4)C[C@@](O)([C@@H](OC(=O)c4ccccc4)[C@H]21)C3(C)C : what is it?
Reply | > 10 nM

Ask | Let us now turn to Nc1ccn([C@@H]2O[C@H](CO)[C@@H](O)[C@@H]2O)c(=O)n1
Reply | > 2000 nM

Ask | Let us now turn to O=C(NOCC1CC1)c1ccc(F)c(F)c1Nc1ccc(I)cc1Cl
Reply | > 10000 nM

Ask | Let us now turn to Cc1cc([C@@H](C)Nc2ccccc2C(=O)O)c2nc(N3CCOCC3)cc(=O)n2c1
Reply | 843 nM

###

- Tested on: S-117
- protocol: cells
- Type: functional, cell-based, Homo sapiens
- measurement_context: Homo sapiens, S-117
- Description: SANGER: Inhibition of human S-117 cell growth in a cell viability assay.
readout_type: IC50

Here are 2 molecules together with their reported answers.
molecule: COc1cc(F)c(F)c(Nc2ccc(I)cc2F)c1NS(=O)(=O)C1(CC(O)CO)CC1 (stereo unspecified)
IC50: > 5000 nM
--
molecule: CC(=O)O[C@@H]1[C@@H](OC(C)=O)[C@@H](O)[C@H](Oc2c(-c3ccc(O)cc3)oc3cc(O)cc(O)c3c2=O)O[C@H]1C
IC50: > 10000 nM

Kindly consider the entry below.
Ask | Reported IC50 for O=c1cc(-c2cccc3c2Sc2ccccc2S3)oc(N2CCOCC2)c1 : what is it?
Reply | > 10000 nM

###

- Test system: SW626
- protocol: cells
- Assay type: functional, cell-based, Homo sapiens
- measurement_context: sw626
- Description: SANGER: Inhibition of human SW626 cell growth in a cell viability assay.
pIC50: −log10 of the molar value.
readout_type: pIC50

Ask | // map Cc1cc([C@@H](C)Nc2ccccc2C(=O)O)c2nc(N3CCOCC3)cc(=O)n2c1 to recorded pIC50 (system: SW626)
Reply | < 5.29

###

- System: HT-1376
- protocol: cells
- Type: functional, cell-based, Homo sapiens
- measurement_context: Homo sapiens, HT-1376
- Description: SANGER: Inhibition of human HT-1376 cell growth in a cell viability assay.
IC50 for assorted compounds

sample_smiles: O=c1cc(-c2cccc3c2Sc2ccccc2S3)oc(N2CCOCC2)c1
IC50: > 10000 nM

sample_smiles: Nc1ccn([C@@H]2O[C@H](CO)[C@@H](O)[C@@H]2O)c(=O)n1
IC50: 1680 nM

sample_smiles: CN(c1ncccc1CNc1nc(Nc2ccc3c(c2)CC(=O)N3)ncc1C(F)(F)F)S(C)(=O)=O
IC50: > 2560 nM

sample_smiles: CCC1=C[C@@H]2CN(C1)Cc1c([nH]c3ccccc13)[C@@](C(=O)OC)(c1cc3c(cc1OC)N(C)[C@H]1[C@@](O)(C(=O)OC)[C@H](OC(C)=O)[C@]4(CC)C=CCN5CC[C@]31[C@@H]54)C2
IC50: 31.5 nM

sample_smiles: COc1ccc(-c2ccc3c(N4CCOC[C@@H]4C)nc(N4CCOC[C@@H]4C)nc3n2)cc1CO
IC50: > 2000 nM

sample_smiles: CCOc1nc(NC(=O)Cc2cc(OC)ccc2OC)cc(N)c1C#N
IC50: > 10000 nM

Kindly consider the entry below.
Ask | Reported IC50 for C[C@]1(O)C[C@@H](c2nc(-c3ccc4ccc(-c5ccccc5)nc4c3)c3c(N)nccn32)C1 : what is it?
Reply | > 2560 nM

###

- System: SW837
- protocol: cells
- Type: functional, cell-based, Homo sapiens
- measurement_context: sw837
- Description: SANGER: Inhibition of human SW837 cell growth in a cell viability assay.
pIC50: −log10 of the molar value.
readout_type: pIC50

Ask | Reported pIC50 for Cc1cc([C@@H](C)Nc2ccccc2C(=O)O)c2nc(N3CCOCC3)cc(=O)n2c1 : what is it?
Reply | < 5.29

###

- System: KARPAS-45;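 note: inhibition of cell line growth, read out through a viability assay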
- protocol: cells
- Format: functional, cell-based
- measurement_context: Homo sapiens
- Description: SANGER: Inhibition of human KARPAS-45 cell growth in a cell viability assay.
IC50 for assorted compounds

Here are 4 compounds together with their reported answers.
compound: CCC1=C[C@@H]2CN(C1)Cc1c([nH]c3ccccc13)[C@@](C(=O)OC)(c1cc3c(cc1OC)N(C)[C@H]1[C@@](O)(C(=O)OC)[C@H](OC(C)=O)[C@]4(CC)C=CCN5CC[C@]31[C@@H]54)C2
result: 5.74 nM
--
compound: CC(=O)O[C@@]12CO[C@@H]1C[C@H](O)[C@@]1(C)C(=O)[C@H](O)C3=C(C)[C@@H](OC(=O)[C@H](O)[C@@H](NC(=O)OC(C)(C)C)c4ccccc4)C[C@@](O)([C@@H](OC(=O)c4ccccc4)[C@H]21)C3(C)C
result: 6.52 nM
--
compound: Cn1cc(C2=C(c3ccc(Cl)cc3Cl)C(=O)NC2=O)c2ccccc21
result: > 10000 nM
--
compound: Cc1cc(Nc2cc(N3CCN(C)CC3)nc(Sc3ccc(NC(=O)C4CC4)cc3)n2)n[nH]1
result: > 2000 nM

Ask | Reported IC50 for Cc1cc([C@@H](C)Nc2ccccc2C(=O)O)c2nc(N3CCOCC3)cc(=O)n2c1 : what is it?
Reply | 3300 nM

Ask | Let us now turn to CCC(=O)N1CCN(c2ccc(-n3c(=O)ccc4cnc5ccc(-c6cnc7ccccc7c6)cc5c43)cc2C(F)(F)F)CC1
Reply | 782 nM

Ask | Let us now turn to COC(=O)CNC(=O)C(=O)OC
Reply | 484000 nM

Ask | Let us now turn to CCc1nc(N)nc(N)c1-c1ccc(Cl)cc1
Reply | > 20000 nM
